Tested on: HS 578T breast
experiment: NCI tumour cell line growth inhibition, 48 h
Listed here are molecules together with their documented GI50.

Req: Consider the molecule `COc1ccc(Nc2nc3cc(N)cc(N)c3nc2-c2ccccc2)cc1OC` . State its measured GI50.
Resp: 18.5 µM

Req: Consider the molecule `N#Cc1c(N)nc(NCc2ccccc2)c(C#N)c1-c1ccc(Cl)cc1Cl` . State its measured GI50.
Resp: 85.7 µM

Req: Consider the molecule `CCOC(=O)c1ccc2c(c1)[n+](=O)c(C(C)=O)c(C(F)(F)F)n2[O-]` . State its measured GI50.
Resp: 1.4 µM

Req: Consider the molecule `COc1ccc(/C=C\c2cc(OC)c(OC)c(OC)c2)cc1OCC(=O)Nc1ccc2nc(C)sc2c1` . State its measured GI50.
Resp: 4.32 µM

Req: Consider the molecule `Cc1c(C(N)=O)sc2c1c(=O)n(Cc1ccccc1)c1nnc(-c3ccc(Br)cc3)n21` . State its measured GI50.
Resp: 5.2 µM

Where do these numbers come from? They come from PubChem BioAssay (NCI).
